target: TXK (Homo sapiens (Human), UniProt P42681); assay: IC50 against TXK; format: biochemical
Sequence (P42681 whole entry, species assumed): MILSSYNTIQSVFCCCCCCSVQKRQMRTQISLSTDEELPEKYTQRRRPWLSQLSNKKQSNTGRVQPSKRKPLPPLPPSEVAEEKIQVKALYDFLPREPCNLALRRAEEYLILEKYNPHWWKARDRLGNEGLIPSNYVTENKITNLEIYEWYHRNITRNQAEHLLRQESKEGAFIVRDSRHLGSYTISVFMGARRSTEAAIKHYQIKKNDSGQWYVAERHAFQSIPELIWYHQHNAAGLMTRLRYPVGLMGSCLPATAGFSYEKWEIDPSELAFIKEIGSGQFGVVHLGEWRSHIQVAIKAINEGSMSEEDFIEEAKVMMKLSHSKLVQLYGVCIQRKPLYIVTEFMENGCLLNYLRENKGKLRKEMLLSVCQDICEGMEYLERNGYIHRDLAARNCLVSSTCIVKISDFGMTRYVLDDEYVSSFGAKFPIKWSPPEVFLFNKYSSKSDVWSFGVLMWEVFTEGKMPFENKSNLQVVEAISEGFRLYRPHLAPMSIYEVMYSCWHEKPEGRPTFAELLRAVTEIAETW
assay_endpoint: IC50

molecule="C=CC(=O)N1CCCN(C(=O)c2cc(Sc3cnc(NC(=O)c4cnsc4)s3)c(C)cc2OC)C[C@H]1C [Compound 93]" reported_measurement="100 to 1000 nM"
molecule="C=CC(=O)N1C[C@H]2CC[C@@H](C1)N2C(=O)c1cc(Sc2cnc(NC(=O)c3ccsc3)s2)c(C)cc1OC [Compound 143]" reported_measurement="< 10 nM"
molecule="C=CC(=O)N1CCCN(C(=O)c2cc(Sc3cnc(NC(=O)C4CCC4)s3)c(C)cc2OC)C[C@H]1C [Compound 86]" reported_measurement="1000 to 10000 nM"
molecule="C=CC(=O)N1CCN(C(=O)c2cc(Sc3cnc(NC(C)=O)s3)c(C)cc2OC)C[C@H]1C [Compound 11]" reported_measurement="100 to 1000 nM"
molecule="C=CC(=O)N1CCN(C(=O)c2cc(Sc3cnc(NC(=O)c4cccc(CN(C)C)c4)s3)c(C)cc2OC)C[C@H]1C#N [Compound 124]" reported_measurement="< 10 nM"
molecule="C=CC(=O)N1CCN(C(=O)c2cc(Sc3cnc(NC(=O)c4cnn(CCN(C)C)c4)s3)c(C)cc2OC)C[C@H]1CC [Compound 116]" reported_measurement="10 to 100 nM"
molecule="C=CC(=O)N1CC[C@@H](N(C)C(=O)c2cc(Sc3cnc(Nc4ccccn4)s3)c(C)cc2OC)C1 [Compound 154]" reported_measurement="< 10 nM"

The measured values listed here are drawn from patent US11008314B2.
